- target of assay: Casein kinase I isoform delta (Homo sapiens, UniProt P48730)
- Sequence (P48730 whole entry, canonical isoform): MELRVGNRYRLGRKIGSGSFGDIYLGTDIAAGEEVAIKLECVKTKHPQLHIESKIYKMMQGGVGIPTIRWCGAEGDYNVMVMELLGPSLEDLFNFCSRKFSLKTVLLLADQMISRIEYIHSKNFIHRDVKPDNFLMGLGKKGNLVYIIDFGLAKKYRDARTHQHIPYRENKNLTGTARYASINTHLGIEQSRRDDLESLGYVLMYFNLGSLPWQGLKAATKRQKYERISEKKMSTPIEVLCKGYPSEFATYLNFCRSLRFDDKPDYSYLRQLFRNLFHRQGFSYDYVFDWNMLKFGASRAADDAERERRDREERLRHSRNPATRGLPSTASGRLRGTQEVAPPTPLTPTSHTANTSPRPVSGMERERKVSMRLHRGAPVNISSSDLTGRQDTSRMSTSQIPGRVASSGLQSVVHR
- assay overview: CSNK1D-Inhibitory Activity Assay
metric name: IC50 (nM)
Report only the number, with the unit nM understood.

O=C(Cc1ccc(F)cc1)Nc1cc(-c2[nH]c3c(CC4CC4)cc(F)nc3c2-c2ccccn2)ccn1 :: 5.76

Moving on to the next molecule.
Qu. Identify measured IC50 associated with CC(C)C(C(=O)Nc1cc(-c2[nH]c3ccc(F)nc3c2-c2ccccn2)ccn1)c1ccc(F)cc1 (single isomer, unassigned)
Ans. 10.4

====

- target of assay: UniProt P00533
- Sequence (P00533 whole entry): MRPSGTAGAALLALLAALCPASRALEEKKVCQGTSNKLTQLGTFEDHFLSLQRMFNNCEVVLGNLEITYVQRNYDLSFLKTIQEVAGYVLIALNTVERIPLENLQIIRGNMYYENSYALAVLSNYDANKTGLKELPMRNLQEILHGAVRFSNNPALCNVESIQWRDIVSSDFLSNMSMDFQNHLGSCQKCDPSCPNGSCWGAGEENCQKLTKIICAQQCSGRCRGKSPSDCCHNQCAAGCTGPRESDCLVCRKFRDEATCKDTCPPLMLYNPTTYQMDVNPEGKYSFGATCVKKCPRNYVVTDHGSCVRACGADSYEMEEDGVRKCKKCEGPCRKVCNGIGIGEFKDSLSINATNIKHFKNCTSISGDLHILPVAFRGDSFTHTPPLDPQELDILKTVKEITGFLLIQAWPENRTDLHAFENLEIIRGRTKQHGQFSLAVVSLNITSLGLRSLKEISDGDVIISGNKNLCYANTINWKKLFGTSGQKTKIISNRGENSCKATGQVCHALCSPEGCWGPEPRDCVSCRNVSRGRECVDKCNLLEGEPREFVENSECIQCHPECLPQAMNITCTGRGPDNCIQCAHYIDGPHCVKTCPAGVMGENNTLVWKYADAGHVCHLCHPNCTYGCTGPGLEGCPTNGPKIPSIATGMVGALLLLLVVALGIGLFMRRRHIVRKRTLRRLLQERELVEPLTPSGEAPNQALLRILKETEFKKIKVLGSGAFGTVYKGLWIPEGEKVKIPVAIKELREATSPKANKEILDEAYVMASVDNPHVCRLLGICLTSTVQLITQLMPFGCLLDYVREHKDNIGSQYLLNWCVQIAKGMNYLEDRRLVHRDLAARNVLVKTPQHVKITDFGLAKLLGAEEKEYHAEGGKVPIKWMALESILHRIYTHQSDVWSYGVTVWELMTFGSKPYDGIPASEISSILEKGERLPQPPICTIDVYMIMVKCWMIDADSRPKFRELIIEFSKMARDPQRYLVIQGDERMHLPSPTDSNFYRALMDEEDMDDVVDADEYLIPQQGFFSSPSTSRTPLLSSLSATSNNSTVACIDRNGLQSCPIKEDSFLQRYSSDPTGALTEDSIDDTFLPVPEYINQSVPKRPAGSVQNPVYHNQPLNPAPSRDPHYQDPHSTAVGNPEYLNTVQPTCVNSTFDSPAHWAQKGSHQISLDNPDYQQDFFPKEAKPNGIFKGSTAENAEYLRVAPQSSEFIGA
pIC50: −log10 of the molar value.
metric name: pIC50

Qu. Answer briefly: pIC50 recorded on UniProt P00533 for O=C(Cc1ccc(F)cc1)Nc1cc(-c2[nH]c3c(CC4CC4)cc(F)nc3c2-c2ccccn2)ccn1 [US20230339939, Example 37]
Ans. < 4.70
